experiment: Clearance in C57BL/6 mouse at 2 mg/kg, iv by LC-MS/MS analysis; assay type: ADME, organism-based; conditions: in vivo
valueKind: clearance (mL/min/kg)
Quick reminder: number only, in mL/min/kg, skip the unit.

[in] # return recorded clearance for entry CS(=O)(=O)c1ccc2nc(Cl)n(-c3ccc(Cl)c(NS(=O)(=O)c4c(F)cccc4F)c3)c(=O)c2c1
[out] 474

* * *

experiment: AUC (infinity) in C57BL/6 mouse at 20 mg/kg, po by LC-MS/MS analysis; format: ADME, organism-based; details: in vivo
valueKind: AUC(0-inf) (µg·h/mL)
Please respond with the number in µg·h/mL and leave the unit unwritten.

[in] Please supply the value of reported AUC(0-inf) for the item CS(=O)(=O)c1ccc2nc(Cl)n(-c3ccc(Cl)c(NS(=O)(=O)c4c(F)cccc4F)c3)c(=O)c2c1
[out] 0.0359
